target of assay: Relaxin receptor 1 (Homo sapiens)
experiment description: Agonist activity at human RXFP1 expressed in T-Rex-CHO-K1 cells assessed as stimulation of cAMP production by measuring maximal efficacy at 50 uM incubated for 45 mins by HTRF assay relative to control
Format: functional, cell-based
measurement context: filed as agonist
attribute measured: Emax (%)
I only need the number, in %, no unit after it.

Worked cases, Emax given:
1) COc1cc(F)c(O[C@H]2CC[C@@H](C(=O)O)CC2)cc1C(=O)N[C@H]1[C@@H](C(=O)Nc2ccc(F)c(S(=O)(=O)C(F)(F)F)c2)[C@@H]2C=C[C@H]1C2 : 114
2) COc1cc(F)c(-c2ccc(C(=O)O)cc2)cc1C(=O)N[C@H]1[C@@H](C(=O)Nc2cccc(S(=O)(=O)C(F)(F)F)c2)[C@@H]2C=C[C@H]1C2 (racemic) : 92
3) COc1cc(F)c(O[C@H]2CC[C@@H](C(=O)O)CC2)cc1C(=O)N[C@H]1[C@H](C(=O)Nc2ccc(F)c(C(F)(F)F)c2)[C@@H]2C=C[C@H]1C2 : 91
4) COc1cc(F)c(-c2ncc(C(=O)O)s2)cc1C(=O)N[C@H]1[C@@H](C(=O)Nc2cccc(S(=O)(=O)C(F)(F)F)c2)[C@@H]2C=C[C@H]1C2 (racemic) : 111
5) COc1cc(F)c(-c2ccc(CC(=O)O)cc2)cc1C(=O)N[C@H]1[C@@H](C(=O)Nc2cccc(S(=O)(=O)C(F)(F)F)c2)[C@@H]2C=C[C@H]1C2 (racemic) : 110
6) COc1ccc(-c2cccnc2)cc1C(=O)N[C@@H]1[C@H](C(=O)Nc2cccc(S(=O)(=O)C(F)(F)F)c2)[C@H]2C=C[C@@H]1C2 (racemic) : 87
7) COc1cc(F)c(OCCCC(=O)O)cc1C(=O)N[C@H]1[C@@H](C(=O)Nc2cccc(S(=O)(=O)C(F)(F)F)c2)[C@@H]2C=C[C@H]1C2 (racemic) : 114
8) COc1cc(F)c(-c2ccc(C(=O)O)cc2)cc1C(=O)Nc1ccccc1C(=O)Nc1cccc(S(=O)(=O)C(F)(F)F)c1 : 115
9) COc1cc(F)c(O[C@H]2CC[C@@](C)(C(=O)O)CC2)cc1C(=O)N[C@@H]1C[C@@H](OC)C[C@@H]1C(=O)Nc1cccc(S(=O)(=O)C(F)(F)F)c1 : 110
10) COc1cc(F)c(F)cc1C(=O)N[C@@H]1[C@H](C(=O)Nc2cccc(S(=O)(=O)C(F)(F)F)c2)[C@H]2C=C[C@@H]1C2 (racemic) : 109

// query Would you mind telling me what Emax value was observed for `COc1ccccc1C(=O)N[C@H]1[C@@H](C(=O)Nc2cccc(S(=O)(=O)C(F)(F)F)c2)[C@@H]2C=C[C@H]1C2` ?
// result 108

// query What about `COc1cc(F)c(O[C@H]2CC[C@@H](C(=O)O)CC2)cc1C(=O)N[C@@H]1[C@H]2CC[C@H](C2)[C@@H]1C(=O)Nc1cccc(S(=O)(=O)C(F)(F)F)c1` ?
// result 102
